Taken from paper PMC8994094.

Let's look at some compounds and their measured Selectivity index THA/AChE.
target: AChE from Electrophorus electricus (Electrophorus electricus, UniProt O42275); assay: AChE activity/kinetic assay; format: biochemical; details: ratio of KI of tacrine to KI of compound
Sequence (O42275 24-633): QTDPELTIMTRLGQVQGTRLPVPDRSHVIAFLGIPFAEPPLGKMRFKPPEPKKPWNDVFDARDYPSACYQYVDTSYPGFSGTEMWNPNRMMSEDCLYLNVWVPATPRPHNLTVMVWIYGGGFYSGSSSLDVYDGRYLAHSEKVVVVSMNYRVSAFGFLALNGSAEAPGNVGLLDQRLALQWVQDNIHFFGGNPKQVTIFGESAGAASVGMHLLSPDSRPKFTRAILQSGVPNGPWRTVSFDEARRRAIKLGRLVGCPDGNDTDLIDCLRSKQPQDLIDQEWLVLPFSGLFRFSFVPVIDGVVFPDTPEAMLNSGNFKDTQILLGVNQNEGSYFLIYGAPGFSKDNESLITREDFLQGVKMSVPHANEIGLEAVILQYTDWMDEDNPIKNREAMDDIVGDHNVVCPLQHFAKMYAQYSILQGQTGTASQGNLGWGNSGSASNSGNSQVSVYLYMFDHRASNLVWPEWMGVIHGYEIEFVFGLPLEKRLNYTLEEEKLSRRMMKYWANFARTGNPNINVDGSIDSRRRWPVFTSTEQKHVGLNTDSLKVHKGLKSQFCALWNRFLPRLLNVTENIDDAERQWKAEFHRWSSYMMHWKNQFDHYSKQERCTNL
Write no unit; give the number alone.

A selection of reference data follows.
CCCCCC(=O)NS(=O)(=O)c1ccc(-c2nnc(SCC)o2)cc1: 3.95
CCCC(=O)NS(=O)(=O)c1ccc(-c2nnc(SCC)o2)cc1: 3.21
CCSc1nnc(-c2ccc(S(=O)(=O)NC(=O)c3ccccc3)cc2)o1: 2.96
CCCCCCCCCCCC(=O)NS(=O)(=O)c1ccc(-c2nnc(SCC)o2)cc1: 3.33
CCCCCCCCC(=O)NS(=O)(=O)c1ccc(-c2nnc(SCC)o2)cc1: 3.27
CCCCC(=O)NS(=O)(=O)c1ccc(-c2nnc(SCC)o2)cc1: 3.77
CCCCCCC(=O)NS(=O)(=O)c1ccc(-c2nnc(SCC)o2)cc1: 3.12

Then this compound:
Given the entry CCSc1nnc(-c2ccc(S(=O)(=O)NC(=O)c3ccc(C)cc3)cc2)o1 , report its measured Selectivity index THA/AChE.
3.30

* * *

target: AChE from Electrophorus electricus (Electrophorus electricus); assay: AChE activity/kinetic assay; format: biochemical; conditions: Lineweaver-Burk
RESULT TYPE: AChE Inhibition type

A selection of reference data follows.
CCCC(=O)NS(=O)(=O)c1ccc(-c2nnc(SCC)o2)cc1 [6d]: Competitive
CCSc1nnc(-c2ccc(S(=O)(=O)NC(=O)c3ccc(C)cc3)cc2)o1 [6b]: Competitive
CCCCCCCC(=O)NS(=O)(=O)c1ccc(-c2nnc(SCC)o2)cc1 [6h]: Competitive
CCSc1nnc(-c2ccc(S(=O)(=O)NC(=O)c3ccccc3)cc2)o1 [6a]: Competitive

Then this compound:
Given the entry CCCCCCC(=O)NS(=O)(=O)c1ccc(-c2nnc(SCC)o2)cc1 [6g] , report its measured AChE Inhibition type.
Competitive

* * *

target: hCA II (Homo sapiens, UniProt P00918); assay: hCA II esterase activity/kinetic assay; assay type: biochemical; settings: Lineweaver-Burk
RESULT TYPE: hCA II Inhibition type

A selection of reference data follows.
CCCCCCCCC(=O)NS(=O)(=O)c1ccc(-c2nnc(SCC)o2)cc1 [6i]: Competitive
CCCCCCCCCCCC(=O)NS(=O)(=O)c1ccc(-c2nnc(SCC)o2)cc1 [6j]: Competitive
CCCCC(=O)NS(=O)(=O)c1ccc(-c2nnc(SCC)o2)cc1 [6e]: Competitive
CCCCCC(=O)NS(=O)(=O)c1ccc(-c2nnc(SCC)o2)cc1 [6f]: Competitive
CCCCCCC(=O)NS(=O)(=O)c1ccc(-c2nnc(SCC)o2)cc1 [6g]: Competitive

Given the entry CCSc1nnc(-c2ccc(S(=O)(=O)NC(=O)c3ccc(C)cc3)cc2)o1 [6b] , report its measured hCA II Inhibition type.
Competitive

Given the entry CCSc1nnc(-c2ccc(S(=O)(=O)NC(=O)c3ccccc3)cc2)o1 [6a] , report its measured hCA II Inhibition type.
Competitive

Given the entry CCCC(=O)NS(=O)(=O)c1ccc(-c2nnc(SCC)o2)cc1 [6d] , report its measured hCA II Inhibition type.
Competitive

* * *

Below are molecules with their Ki as measured on hCA I (Homo sapiens, UniProt P00915).
Sequence (P00915 whole entry): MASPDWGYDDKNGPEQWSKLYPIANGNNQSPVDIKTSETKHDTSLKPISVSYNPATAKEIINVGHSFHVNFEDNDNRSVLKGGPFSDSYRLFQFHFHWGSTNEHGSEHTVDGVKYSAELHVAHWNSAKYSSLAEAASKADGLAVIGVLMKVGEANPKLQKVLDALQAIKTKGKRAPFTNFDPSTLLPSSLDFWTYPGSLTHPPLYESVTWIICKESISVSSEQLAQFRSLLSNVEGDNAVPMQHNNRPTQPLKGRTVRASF
Answer format: numeric, nM implied, no suffix.

A selection of reference data follows.
CCSc1nnc(-c2ccc(S(=O)(=O)NC(=O)c3ccc(C)cc3)cc2)o1: 59.6
CCCCCCC(=O)NS(=O)(=O)c1ccc(-c2nnc(SCC)o2)cc1: 23
CCCCCC(=O)NS(=O)(=O)c1ccc(-c2nnc(SCC)o2)cc1: 33.1
CCCCCCCCC(=O)NS(=O)(=O)c1ccc(-c2nnc(SCC)o2)cc1: 38.4
CCCC(=O)NS(=O)(=O)c1ccc(-c2nnc(SCC)o2)cc1: 18.7

So what Ki did CCSc1nnc(-c2ccc(S(=O)(=O)NC(=O)c3ccccc3)cc2)o1 get with hCA I (Homo sapiens, UniProt P00915)?
21.6

So what Ki did CCCCC(=O)NS(=O)(=O)c1ccc(-c2nnc(SCC)o2)cc1 get with hCA I (Homo sapiens, UniProt P00915)?
47.2

So what Ki did CCCCCCCC(=O)NS(=O)(=O)c1ccc(-c2nnc(SCC)o2)cc1 get with hCA I (Homo sapiens, UniProt P00915)?
34.6

So what Ki did CCCCCCCCCCCC(=O)NS(=O)(=O)c1ccc(-c2nnc(SCC)o2)cc1 get with hCA I (Homo sapiens, UniProt P00915)?
31
